Molecular target: L-SIGN (Homo sapiens, UniProt Q9H2X3)
Construct: L-SIGN 3G-ECD (amino acids 78 to 399); made in house
Sequence (Q9H2X3 78-399): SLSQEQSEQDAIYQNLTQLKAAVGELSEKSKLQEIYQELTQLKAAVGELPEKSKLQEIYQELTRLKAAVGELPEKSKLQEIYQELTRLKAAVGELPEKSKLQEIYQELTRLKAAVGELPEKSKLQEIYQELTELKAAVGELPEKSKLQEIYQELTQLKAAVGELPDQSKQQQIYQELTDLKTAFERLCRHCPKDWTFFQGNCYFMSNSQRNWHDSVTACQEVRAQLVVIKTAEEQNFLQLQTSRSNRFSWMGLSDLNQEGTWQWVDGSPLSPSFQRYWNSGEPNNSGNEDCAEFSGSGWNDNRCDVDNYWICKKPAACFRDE
Assay: SPR binding inhibition (competition) assay on immobilized SARS-CoV-2 Spike surface, L-SIGN
Details: SPR, Spike functionalized chip, L-SIGN 20 μM coinjected with ligand, pH 8, duplicates
With a cut-off of 30 µM, any IC50 strictly below it is called TRUE; any IC50 meeting it or above is called FALSE.

Would you kindly verify if IC50 of `OC[C@H]1O[C@H](OCCCl)[C@@H](n2cc(CNC3=NCCN3)nn2)[C@@H](O)[C@@H]1O` is strictly less than 30 µM?
TRUE

Also, `OC[C@H]1O[C@H](OCCCl)[C@@H](n2cc(CNC3=NCCCN3)nn2)[C@@H](O)[C@@H]1O` please.
TRUE

Okay, and `OC[C@H]1O[C@H](OCCCl)[C@@H](n2cc(CNc3nc4ccccc4[nH]3)nn2)[C@@H](O)[C@@H]1O` ?
FALSE

Also need `OC[C@H]1O[C@H](OCCCl)[C@@H](n2cc(CNc3ncccn3)nn2)[C@@H](O)[C@@H]1O` , thanks.
FALSE

What do you have for `COc1ccc2[nH]c(NCc3cn([C@@H]4[C@@H](OCCCl)O[C@H](CO)[C@@H](O)[C@@H]4O)nn3)nc2c1` ?
FALSE

* * *

Target: DC-SIGN (Homo sapiens)
Construct: DC-SIGN 3G-ECD (amino acids 66 to 404)
Assay: SPR binding inhibition (competition) assay on immobilized SARS-CoV-2 Spike surface, DC-SIGN
Details: Spike functionalized chip, DC-SIGN 20 μM coinjected with ligand, pH 8, duplicates
So I've got a bunch of compounds here, and I need their IC50 values.

Which value of IC50 has been reported for NCc1cn([C@@H]2[C@@H](OCCCl)O[C@H](CO)[C@@H](O)[C@@H]2O)nn1 [compound 51, reference compound] in the records?
~300 µM

Please give the result for `OC[C@H]1O[C@H](OCCCl)[C@@H](n2cc(CNC3=NCCN3)nn2)[C@@H](O)[C@@H]1O` too.
1130 µM

Here is the next compound: N=C(N)NCc1cn([C@@H]2[C@@H](OCCCl)O[C@H](CO)[C@@H](O)[C@@H]2O)nn1 [Man84, reference compound]
1160 µM

Follow-up item: `OC[C@H]1O[C@H](OCCCl)[C@@H](n2cc(CNc3nc4ccccc4[nH]3)nn2)[C@@H](O)[C@@H]1O`
779 µM

Next record, please: `O=c1ccnc(NCc2cn([C@@H]3[C@@H](OCCCl)O[C@H](CO)[C@@H](O)[C@@H]3O)nn2)[nH]1`
750 µM

* * *

Molecular target: DC-SIGN (Homo sapiens, UniProt Q9NNX6)
Construct: DC-SIGN 3G-ECD (amino acids 66 to 404)
Sequence (Q9NNX6 66-404): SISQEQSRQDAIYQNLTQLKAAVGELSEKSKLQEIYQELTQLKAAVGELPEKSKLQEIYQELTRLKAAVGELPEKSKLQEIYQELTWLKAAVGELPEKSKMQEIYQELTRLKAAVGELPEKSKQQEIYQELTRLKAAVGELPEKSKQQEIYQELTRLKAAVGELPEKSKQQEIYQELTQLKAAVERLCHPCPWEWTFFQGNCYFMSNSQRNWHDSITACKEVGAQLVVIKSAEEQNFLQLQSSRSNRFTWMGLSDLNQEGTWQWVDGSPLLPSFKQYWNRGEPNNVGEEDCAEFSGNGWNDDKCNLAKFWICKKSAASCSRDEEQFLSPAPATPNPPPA
Experiment: SPR binding inhibition (competition) assay on immobilized SARS-CoV-2 Spike surface, DC-SIGN
Settings: Spike functionalized chip, DC-SIGN 20 μM coinjected with ligand, pH 8, duplicates
For each record, write down the corresponding pIC50.
Conceptually, pIC50 converts a concentration in mol/L into minus its log10.

# lookup: pIC50 of `OC[C@H]1O[C@H](OCCCl)[C@@H](n2cc(CNc3ccccn3)nn2)[C@@H](O)[C@@H]1O`
3.09

Repeat with `OC[C@H]1O[C@H](OCCCl)[C@@H](n2cc(CNC3=NCCCN3)nn2)[C@@H](O)[C@@H]1O`
2.95

Same for `OC[C@H]1O[C@H](OCCCl)[C@@H](n2cc(CNc3ncccn3)nn2)[C@@H](O)[C@@H]1O`
3.10

Follow-up item: `OC[C@H]1O[C@H](OCCCl)[C@@H](n2cc(CNc3ncc[nH]3)nn2)[C@@H](O)[C@@H]1O`
3.05

Same read-out for `COc1nc(NCc2cn([C@@H]3[C@@H](OCCCl)O[C@H](CO)[C@@H](O)[C@@H]3O)nn2)nc(OC)n1` ?
3.26

Cool, now `COc1ccc2[nH]c(NCc3cn([C@@H]4[C@@H](OCCCl)O[C@H](CO)[C@@H](O)[C@@H]4O)nn3)nc2c1`
3.22

Entry `O=c1nccc(NCc2cn([C@@H]3[C@@H](OCCCl)O[C@H](CO)[C@@H](O)[C@@H]3O)nn2)[nH]1` please
3.16
